Study system: human carbonic anhydrase 9 (CAIX) (human, UniProt Q16790 38-459)
Protocol text: FACS competition on HT-29 cells against tracer 3BP-2776; pIC50 category A = pIC50 >8.0
Description: CAIX-expressing human HT-29 colorectal cancer cells (DSMZ, RRID: CVCL_0320) were cultured in McCoys's 5A modified medium (Biochrom, #F1015) including 10% fetal calf serum (FCS), 2 mM L-glutamine, 100 U/ml penicillin and 100 μg/mL streptomycin. […] Cells were washed twice with ice-cold FACS buffer and analyzed in an Attune NxT flow cytometer (Thermo Fisher). Median fluorescence intensities (MFI) of the APC/Cy5-channel were calculated by Attune NxT software.
Starred links: 1 amine or outer side, 2 acyl side, 3 side chain; linkers in the order of their positions; H or OH if unused. Positions of bridges follow the written chain, without caps; N, C: chain ends. Non-standard residues stand in square brackets, D forms with d. mXylylene = c1cc(C[*:1])cc(C[*:2])c1
Measure: pIC50

Field pIC50 (entry Ac-VYCE[dP]DWLTWSC-NH2 (linker 3-12 via mXylylene; SMILES CC(=O)N[C@H](C(=O)N[C@@H](Cc1ccc(O)cc1)C(=O)N[C@H]1CSCc2cccc(c2)CSC[C@@H](C(N)=O)NC(=O)[C@H](CO)NC(=O)[C@H](Cc2c[nH]c3ccccc23)NC(=O)[C@H]([C@@H](C)O)NC(=O)[C@H](CC(C)C)NC(=O)[C@H](Cc2c[nH]c3ccccc23)NC(=O)[C@H](CC(=O)O)NC(=O)[C@H]2CCCN2C(=O)[C@H](CCC(=O)O)NC1=O)C(C)C, also called Ac-Val-Tyr-[Cys(3MeBn)-Glu-pro-Asp-Trp-Leu-Thr-Trp-Ser-Cys]-NH2) [3BP-3565] ) reads > 8 pic50

Cited source for all entries: patent US20250339569A1
